The entries below are paired with their reported Ratio.
tested system: Broad substrate specificity ATP-binding cassette transporter ABCG2 (Homo sapiens)
method: Inhibition of BCRP expressed in human EPG-257RNOV cells at 1 uM relative to control
Type: cell-based
When you answer, write just the number.

OC[C@]12C3N(Cc4ccc(O)cc4)C4[C@@]5(CO)C(N(Cc6ccc(O)cc6)C1[C@]3(CO)[C@@H]5c1ccccc1)[C@]4(CO)[C@@H]2c1ccccc1
1.1
OC[C@]12C3N(Cc4ccccc4)C4[C@@]5(CO)C(N(Cc6ccccc6)C1[C@]3(CO)[C@@H]5c1ccc(OCc3ccccc3)cc1)[C@]4(CO)[C@@H]2c1ccc(OCc2ccccc2)cc1
3.5
OC[C@]12C3N(Cc4ccccc4)C4[C@@]5(CO)C(N(Cc6ccccc6)C1[C@]3(CO)[C@@H]5c1ccccc1)[C@]4(CO)[C@@H]2c1ccccc1
1.9

Shift focus to the following entry.
`OC[C@]12C3N(Cc4cccc(OCc5ccccc5)c4)C4[C@@]5(CO)C(N(Cc6cccc(OCc7ccccc7)c6)C1[C@]3(CO)[C@@H]5c1ccccc1)[C@]4(CO)[C@@H]2c1ccccc1` yielded Ratio of 4.2

---

Test system: L5178Y
method: Inhibition of Pgp expressed in mouse L5178Y cells at 1 uM relative to control
Format: cell-based
Lab note - cut at 2 for Ratio: Condition met if strictly below, Condition not met if not.

Use these answered entries as a reference point.
OC[C@]12C3N(Cc4ccc(O)cc4)C4[C@@]5(CO)C(N(Cc6ccc(O)cc6)C1[C@]3(CO)[C@@H]5c1ccccc1)[C@]4(CO)[C@@H]2c1ccccc1
Condition met
OC[C@]12C3N(Cc4ccccc4)C4[C@@]5(CO)C(N(Cc6ccccc6)C1[C@]3(CO)[C@@H]5c1ccc(O)cc1)[C@]4(CO)[C@@H]2c1ccc(O)cc1
Condition met

Lookup: Quick check: does `COc1ccc(CN2C3[C@]4(CO)C5N(Cc6ccc(OC)cc6)C6[C@@](CO)(C2[C@]6(CO)[C@H]4c2ccccc2)[C@H](c2ccccc2)[C@@]35CO)cc1` have Ratio under 2?
Found: Condition not met

Lookup: Quick check: does `OC[C@]12C3N(Cc4ccccc4)C4[C@@]5(CO)C(N(Cc6ccccc6)C1[C@]3(CO)[C@@H]5c1ccncc1)[C@]4(CO)[C@@H]2c1ccncc1` have Ratio under 2?
Found: Condition not met

Lookup: Quick check: does `OC[C@]12C3N(Cc4ccc(OCc5ccccc5)cc4)C4[C@@]5(CO)C(N(Cc6ccc(OCc7ccccc7)cc6)C1[C@]3(CO)[C@@H]5c1ccccc1)[C@]4(CO)[C@@H]2c1ccccc1` have Ratio under 2?
Found: Condition not met

Lookup: Quick check: does `OC[C@]12C3N(Cc4ccccc4)C4[C@@]5(CO)C(N(Cc6ccccc6)C1[C@]3(CO)[C@@H]5c1ccc(OCc3ccccc3)cc1)[C@]4(CO)[C@@H]2c1ccc(OCc2ccccc2)cc1` have Ratio under 2?
Found: Condition not met

Lookup: Quick check: does `OC[C@]12C3N(Cc4cccc(OCc5ccccc5)c4)C4[C@@]5(CO)C(N(Cc6cccc(OCc7ccccc7)c6)C1[C@]3(CO)[C@@H]5c1ccccc1)[C@]4(CO)[C@@H]2c1ccccc1` have Ratio under 2?
Found: Condition not met

---

The entries below are paired with their reported Ratio.
tested system: Broad substrate specificity ATP-binding cassette transporter ABCG2 (Homo sapiens, UniProt Q9UNQ0)
Sequence (Q9UNQ0 whole entry): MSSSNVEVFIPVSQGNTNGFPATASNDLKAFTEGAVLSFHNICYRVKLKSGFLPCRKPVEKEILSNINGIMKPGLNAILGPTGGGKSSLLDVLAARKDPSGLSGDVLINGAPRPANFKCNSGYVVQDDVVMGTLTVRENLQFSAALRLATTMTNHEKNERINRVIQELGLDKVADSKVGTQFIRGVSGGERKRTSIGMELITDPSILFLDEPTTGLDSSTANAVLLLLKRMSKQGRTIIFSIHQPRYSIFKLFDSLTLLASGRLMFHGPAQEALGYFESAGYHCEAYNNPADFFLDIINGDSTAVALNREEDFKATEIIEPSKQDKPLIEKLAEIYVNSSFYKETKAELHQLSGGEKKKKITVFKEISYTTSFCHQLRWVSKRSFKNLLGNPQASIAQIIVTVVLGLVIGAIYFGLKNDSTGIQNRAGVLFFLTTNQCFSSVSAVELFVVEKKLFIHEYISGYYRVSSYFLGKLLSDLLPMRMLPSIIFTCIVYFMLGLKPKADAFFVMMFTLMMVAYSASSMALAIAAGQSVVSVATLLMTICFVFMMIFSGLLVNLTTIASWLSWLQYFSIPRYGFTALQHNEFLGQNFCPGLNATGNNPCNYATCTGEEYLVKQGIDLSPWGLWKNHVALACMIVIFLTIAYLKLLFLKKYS
method: Inhibition of BCRP expressed in human EPG-257RNOV cells at 1 uM relative to control
Format: cell-based
When you answer, write just the number.

Would you please look over these solved cases?
COc1ccc2c3c([nH]c2c1)[C@H](C=C(C)C)N1C(=O)[C@@H]2CCCN2C(=O)[C@@H]1C3 [FUMITREMORGIN]
6
OC[C@]12C3N(Cc4ccccc4)C4[C@@]5(CO)C(N(Cc6ccccc6)C1[C@]3(CO)[C@@H]5c1cccc(O)c1)[C@]4(CO)[C@@H]2c1cccc(O)c1
1.1
OC[C@]12C3N(Cc4ccc(OCc5ccccc5)cc4)C4[C@@]5(CO)C(N(Cc6ccc(OCc7ccccc7)cc6)C1[C@]3(CO)[C@@H]5c1ccccc1)[C@]4(CO)[C@@H]2c1ccccc1
1.2

`OC[C@]12C3N(Cc4ccncc4)C4[C@@]5(CO)C(N(Cc6ccncc6)C1[C@]3(CO)[C@@H]5c1ccccc1)[C@]4(CO)[C@@H]2c1ccccc1` yielded Ratio of 1.3

`OC[C@]12C3N(Cc4ccccc4)C4[C@@]5(CO)C(N(Cc6ccccc6)C1[C@]3(CO)[C@@H]5c1ccncc1)[C@]4(CO)[C@@H]2c1ccncc1` yielded Ratio of 1.2

`OC[C@]12C3N(Cc4ccccc4)C4[C@@]5(CO)C(N(Cc6ccccc6)C1[C@]3(CO)[C@@H]5c1ccc(O)cc1)[C@]4(CO)[C@@H]2c1ccc(O)cc1` yielded Ratio of 1.5

---

tested system: ATP-binding cassette sub-family C member 2 (Homo sapiens)
Sequence (Q92887 whole entry): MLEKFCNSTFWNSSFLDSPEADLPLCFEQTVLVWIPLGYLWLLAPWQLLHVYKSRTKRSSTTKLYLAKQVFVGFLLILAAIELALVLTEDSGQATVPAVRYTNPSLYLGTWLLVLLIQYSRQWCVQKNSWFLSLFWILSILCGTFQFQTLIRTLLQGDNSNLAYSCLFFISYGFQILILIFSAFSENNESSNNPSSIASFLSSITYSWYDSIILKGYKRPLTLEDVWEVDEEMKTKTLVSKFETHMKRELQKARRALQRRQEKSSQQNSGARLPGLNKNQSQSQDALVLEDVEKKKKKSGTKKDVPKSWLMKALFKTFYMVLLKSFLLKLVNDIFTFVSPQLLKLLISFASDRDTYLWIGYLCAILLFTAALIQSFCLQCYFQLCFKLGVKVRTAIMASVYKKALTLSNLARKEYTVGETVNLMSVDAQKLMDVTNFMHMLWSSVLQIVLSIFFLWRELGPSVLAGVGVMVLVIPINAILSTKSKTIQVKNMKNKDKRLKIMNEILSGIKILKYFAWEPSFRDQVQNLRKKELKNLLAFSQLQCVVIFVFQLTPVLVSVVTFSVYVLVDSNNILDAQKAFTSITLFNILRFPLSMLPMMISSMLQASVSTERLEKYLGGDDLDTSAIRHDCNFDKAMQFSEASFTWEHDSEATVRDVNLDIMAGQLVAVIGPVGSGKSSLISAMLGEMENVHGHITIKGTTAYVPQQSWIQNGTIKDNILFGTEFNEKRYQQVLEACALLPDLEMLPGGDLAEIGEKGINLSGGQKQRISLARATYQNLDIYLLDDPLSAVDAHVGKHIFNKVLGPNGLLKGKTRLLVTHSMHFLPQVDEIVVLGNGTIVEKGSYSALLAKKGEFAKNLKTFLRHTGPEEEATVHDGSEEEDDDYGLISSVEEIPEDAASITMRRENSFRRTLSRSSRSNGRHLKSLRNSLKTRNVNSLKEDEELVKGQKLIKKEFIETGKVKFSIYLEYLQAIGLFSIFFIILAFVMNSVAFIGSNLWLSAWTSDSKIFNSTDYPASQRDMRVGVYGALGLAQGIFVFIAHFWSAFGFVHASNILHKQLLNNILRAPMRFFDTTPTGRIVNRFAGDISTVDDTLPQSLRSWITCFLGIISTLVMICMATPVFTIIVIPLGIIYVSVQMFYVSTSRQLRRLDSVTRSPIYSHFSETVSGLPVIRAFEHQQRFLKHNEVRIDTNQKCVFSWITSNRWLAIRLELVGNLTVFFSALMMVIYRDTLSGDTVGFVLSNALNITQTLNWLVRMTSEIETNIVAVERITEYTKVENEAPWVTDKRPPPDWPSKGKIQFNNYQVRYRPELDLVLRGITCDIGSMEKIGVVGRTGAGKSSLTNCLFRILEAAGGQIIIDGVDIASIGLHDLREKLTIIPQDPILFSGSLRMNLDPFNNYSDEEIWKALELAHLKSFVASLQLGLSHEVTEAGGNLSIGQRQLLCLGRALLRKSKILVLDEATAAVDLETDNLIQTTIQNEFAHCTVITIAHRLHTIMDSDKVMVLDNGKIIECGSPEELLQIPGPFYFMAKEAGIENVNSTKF
method: Inhibition of MRP2 expressed in human A2780 cells at 10 uM relative to control
Type: cell-based
settings: a2780, 10 µM
metric name: Ratio
When you answer, write just the number.

Would you please look over these solved cases?
COc1ccc2c(c1)c(CC(=O)O)c(C)n2C(=O)c1ccc(Cl)cc1
0.75
OC[C@]12C3N(Cc4ccccc4)C4[C@@]5(CO)C(N(Cc6ccccc6)C1[C@]3(CO)[C@@H]5c1cccc(O)c1)[C@]4(CO)[C@@H]2c1cccc(O)c1
1.05

Shift focus to the following entry.
For `OC[C@]12C3N(Cc4ccccc4)C4[C@@]5(CO)C(N(Cc6ccccc6)C1[C@]3(CO)[C@@H]5c1ccc(OCc3ccccc3)cc1)[C@]4(CO)[C@@H]2c1ccc(OCc2ccccc2)cc1` on ATP-binding cassette sub-family C member 2 (Homo sapiens), measured Ratio was 1.56

---

Tested on: L5178Y
method: Inhibition of Pgp expressed in mouse L5178Y cells at 1 uM relative to control
Assay type: cell-based
metric name: Ratio
When you answer, write just the number.

Would you please look over these solved cases?
OC[C@]12C3N(Cc4ccccc4)C4[C@@]5(CO)C(N(Cc6ccccc6)C1[C@]3(CO)[C@@H]5c1cccc(O)c1)[C@]4(CO)[C@@H]2c1cccc(O)c1
1.2
OC[C@]12C3N(Cc4cccnc4)C4[C@@]5(CO)C(N(Cc6cccnc6)C1[C@]3(CO)[C@@H]5c1ccccc1)[C@]4(CO)[C@@H]2c1ccccc1
1.2

`OC[C@]12C3N(Cc4ccccc4)C4[C@@]5(CO)C(N(Cc6ccccc6)C1[C@]3(CO)[C@@H]5c1cccc(OCc3ccccc3)c1)[C@]4(CO)[C@@H]2c1cccc(OCc2ccccc2)c1` yielded Ratio of 65

---

tested system: Multidrug resistance-associated protein 1 (Homo sapiens, UniProt P33527)
Sequence (P33527 whole entry): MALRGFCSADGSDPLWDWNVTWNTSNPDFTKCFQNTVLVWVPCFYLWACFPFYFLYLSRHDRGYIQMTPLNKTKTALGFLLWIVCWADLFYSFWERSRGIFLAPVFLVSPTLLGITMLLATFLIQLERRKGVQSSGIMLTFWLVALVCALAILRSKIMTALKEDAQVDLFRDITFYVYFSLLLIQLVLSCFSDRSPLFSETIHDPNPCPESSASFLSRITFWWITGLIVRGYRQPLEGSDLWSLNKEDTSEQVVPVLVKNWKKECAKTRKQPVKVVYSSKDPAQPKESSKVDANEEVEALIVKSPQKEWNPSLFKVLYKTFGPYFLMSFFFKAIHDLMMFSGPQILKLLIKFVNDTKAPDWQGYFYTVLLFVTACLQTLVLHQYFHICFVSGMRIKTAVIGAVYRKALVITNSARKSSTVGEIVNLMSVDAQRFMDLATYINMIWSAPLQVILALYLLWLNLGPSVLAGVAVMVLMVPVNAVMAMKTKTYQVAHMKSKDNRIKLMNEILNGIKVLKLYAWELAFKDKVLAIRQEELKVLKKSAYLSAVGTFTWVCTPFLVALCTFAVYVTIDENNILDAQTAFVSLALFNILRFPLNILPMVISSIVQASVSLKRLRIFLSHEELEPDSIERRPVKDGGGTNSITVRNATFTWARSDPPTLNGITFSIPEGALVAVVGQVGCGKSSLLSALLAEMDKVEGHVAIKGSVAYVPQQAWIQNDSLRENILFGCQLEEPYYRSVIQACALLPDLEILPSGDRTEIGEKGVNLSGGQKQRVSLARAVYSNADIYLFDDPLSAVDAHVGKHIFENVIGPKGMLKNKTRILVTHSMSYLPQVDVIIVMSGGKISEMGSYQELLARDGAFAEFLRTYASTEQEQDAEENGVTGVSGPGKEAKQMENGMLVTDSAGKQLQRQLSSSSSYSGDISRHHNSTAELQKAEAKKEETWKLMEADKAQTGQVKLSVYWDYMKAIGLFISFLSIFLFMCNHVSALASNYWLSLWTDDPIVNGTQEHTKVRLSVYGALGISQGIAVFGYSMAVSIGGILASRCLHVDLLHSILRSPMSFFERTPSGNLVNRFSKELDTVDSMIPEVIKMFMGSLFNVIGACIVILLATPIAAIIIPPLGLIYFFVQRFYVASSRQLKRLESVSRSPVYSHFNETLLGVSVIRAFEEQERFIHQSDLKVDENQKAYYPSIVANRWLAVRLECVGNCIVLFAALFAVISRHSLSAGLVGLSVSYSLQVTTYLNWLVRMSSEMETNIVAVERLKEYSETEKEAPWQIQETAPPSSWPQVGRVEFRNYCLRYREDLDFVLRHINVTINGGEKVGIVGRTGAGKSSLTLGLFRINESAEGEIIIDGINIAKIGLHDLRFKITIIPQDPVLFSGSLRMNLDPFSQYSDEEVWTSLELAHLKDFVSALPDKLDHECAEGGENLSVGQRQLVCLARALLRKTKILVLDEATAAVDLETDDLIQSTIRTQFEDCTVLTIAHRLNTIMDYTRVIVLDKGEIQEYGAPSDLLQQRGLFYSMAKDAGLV
method: Inhibition of MRP1 expressed in human A2780 cells at 10 uM relative to control
Format: cell-based
settings: a2780, 10 µM
Answer Not fulfilled if Ratio is under 2, and Fulfilled if it is 2 or more.

Use these answered entries as a reference point.
COc1ccc2c(c1)c(CC(=O)O)c(C)n2C(=O)c1ccc(Cl)cc1 [INDOMETHACIN]
Fulfilled
OC[C@]12C3N(Cc4ccc(O)cc4)C4[C@@]5(CO)C(N(Cc6ccc(O)cc6)C1[C@]3(CO)[C@@H]5c1ccccc1)[C@]4(CO)[C@@H]2c1ccccc1
Not fulfilled
OC[C@]12C3N(Cc4cccnc4)C4[C@@]5(CO)C(N(Cc6cccnc6)C1[C@]3(CO)[C@@H]5c1ccccc1)[C@]4(CO)[C@@H]2c1ccccc1
Not fulfilled
OC[C@]12C3N(Cc4ccccc4)C4[C@@]5(CO)C(N(Cc6ccccc6)C1[C@]3(CO)[C@@H]5c1ccc(O)cc1)[C@]4(CO)[C@@H]2c1ccc(O)cc1
Not fulfilled
OC[C@]12C3N(Cc4ccccc4)C4[C@@]5(CO)C(N(Cc6ccccc6)C1[C@]3(CO)[C@@H]5c1cccc(O)c1)[C@]4(CO)[C@@H]2c1cccc(O)c1
Not fulfilled
OC[C@]12C3N(Cc4ccccc4)C4[C@@]5(CO)C(N(Cc6ccccc6)C1[C@]3(CO)[C@@H]5c1cccc(OCc3ccccc3)c1)[C@]4(CO)[C@@H]2c1cccc(OCc2ccccc2)c1
Not fulfilled
OC[C@]12C3N(Cc4ccccc4)C4[C@@]5(CO)C(N(Cc6ccccc6)C1[C@]3(CO)[C@@H]5c1ccccc1)[C@]4(CO)[C@@H]2c1ccccc1
Fulfilled
COc1ccc(CN2C3[C@]4(CO)C5N(Cc6ccc(OC)cc6)C6[C@@](CO)(C2[C@]6(CO)[C@H]4c2ccccc2)[C@H](c2ccccc2)[C@@]35CO)cc1
Fulfilled

Lookup: Can `OC[C@]12C3N(Cc4ccccc4)C4[C@@]5(CO)C(N(Cc6ccccc6)C1[C@]3(CO)[C@@H]5c1ccc(OCc3ccccc3)cc1)[C@]4(CO)[C@@H]2c1ccc(OCc2ccccc2)cc1` be said to have Ratio at or above 2?
Found: Not fulfilled

Lookup: Can `OC[C@]12C3N(Cc4ccncc4)C4[C@@]5(CO)C(N(Cc6ccncc6)C1[C@]3(CO)[C@@H]5c1ccccc1)[C@]4(CO)[C@@H]2c1ccccc1` be said to have Ratio at or above 2?
Found: Not fulfilled

Lookup: Can `COc1ccc(CN2C3[C@]4(CO)C5N(Cc6ccc(OC)cc6)C6[C@@](CO)(C2[C@]6(CO)[C@H]4c2ccc(OC)cc2)[C@H](c2ccc(OC)cc2)[C@@]35CO)cc1` be said to have Ratio at or above 2?
Found: Fulfilled
